System: ZEAMX (Corn, Field)
Experiment: Postemergence herbicidal evaluation
Assay type: in vivo, Zea mays
Details: postemergence, rate 0.0313 kg/ha
Method: In the tests, seedling plants are grown in jiffy flats for about two weeks. The test compounds are dispersed in 50/50 acetone/water mixtures containing 0.5% TWEEN®20, a polyoxyethylene sorbitan monolaurate surfactant of Atlas Chemical Industries, in sufficient quantities to provide the equivalent of about 0.0156 kg to 0.500 kg per hectare of active compound when applied to the plants through a spray nozzle operating at 40 psi for a predetermined time. […]
Mark criterion met only for ZEAMX herbicidal rating values smaller than 4; exact matches and larger values are criterion not met.

{"molecule": "CN1C(=O)CSC1=Nc1cc(N2C(=O)C3=C(CCCC3)C2=O)c(F)cc1Cl", "group": "criterion met"}

Incoming: API: query returns whether the molecule falls strictly under 4 in ZEAMX herbicidal rating. Query: CCOC(=O)CN1C(=O)C(CC(=O)OC(C)C(=O)OCC)S/C1=N/c1cc(-n2c(=O)cc(C(F)(F)F)n(C)c2=O)c(F)cc1Cl (centres unmarked)
Outgoing: criterion not met

Incoming: API: query returns whether the molecule falls strictly under 4 in ZEAMX herbicidal rating. Query: CCOC(=O)CN1C(=O)C(CC)SC1=Nc1cc(-n2c(=O)cc(C(F)(F)F)n(C)c2=O)c(F)cc1Cl (centres unmarked)
Outgoing: criterion not met

Incoming: API: query returns whether the molecule falls strictly under 4 in ZEAMX herbicidal rating. Query: CCOC(=O)CN1C(=O)C(F)SC1=Nc1cc(-n2c(=O)cc(C(F)(F)F)n(C)c2=O)c(F)cc1Cl (centres unmarked)
Outgoing: criterion not met

Incoming: API: query returns whether the molecule falls strictly under 4 in ZEAMX herbicidal rating. Query: COC(=O)CN1C(=O)CSC1=Nc1cc(-n2c(=O)cc(C(F)(F)F)n(C)c2=O)c(F)cc1Cl
Outgoing: criterion not met

* * *

test system: CASOB (Sicklepod); experiment: Postemergence herbicidal evaluation; assay type: in vivo, Cassia obtusifolia; settings: postemergence, rate 0.0156 kg/ha
Below is a list of entries, each paired with its recorded herbicidal rating CASOB value.
Reply with just the number.

Look over these answered cases.
{"smiles entry": "CCOC(=O)CN1C(=O)CSC1=Nc1cc(N2C(=O)CC(C(F)(F)F)CC2=O)c(F)cc1Cl", "herbicidal rating CASOB": 0.0}
{"smiles entry": "Cc1cccc(CN2C(=O)CSC2=Nc2cc(-n3c(=O)cc(C(F)(F)F)n(C)c3=O)c(F)cc2Cl)c1", "herbicidal rating CASOB": 2.0}
{"smiles entry": "COC(=O)CSCCN1C(=O)CSC1=Nc1cc(-n2c(=O)cc(C(F)(F)F)n(C)c2=O)c(F)cc1Cl", "herbicidal rating CASOB": 4.0}
{"smiles entry": "Cc1ccc(CN2C(=O)CSC2=Nc2cc(-n3c(=O)cc(C(F)(F)F)n(C)c3=O)c(F)cc2Cl)cc1C", "herbicidal rating CASOB": 1.0}

With those in mind, consider the next compound.
Incoming: Answer briefly: herbicidal rating CASOB recorded on CASOB (Sicklepod) for Cn1c(C(F)(F)F)cc(=O)n(-c2cc(N=C3SCC(=O)N3Cc3ccco3)c(Cl)cc2F)c1=O
Outgoing: 1.0

* * *

system: ZEAMX (Corn, Field); assay: Preemergence herbicidal evaluation; assay type: in vivo, Zea mays; details: rate 0.2500 kg/ha; rated 4-5 weeks after treatment
Classify by measured Preemergence herbicidal rating ZEAMX: Criterion met if it is equal to or exceeds 4, Criterion not met if it is smaller.

Take a look at these entries with their results.
{"molecule": "CCOC(=O)CCN1C(=O)CSC1=Nc1cc(-n2c(=O)cc(C(F)(F)F)n(C)c2=O)c(Cl)cc1Cl", "group": "Criterion met"}
{"molecule": "COC(=O)CCN1C(=O)CSC1=Nc1cc(-n2c(=O)cc(C(F)(F)F)n(C)c2=O)c(F)cc1Cl", "group": "Criterion met"}
{"molecule": "CCOC(=O)[C@H](C)N1C(=O)CSC1=Nc1cc(-n2c(=O)cc(C(F)(F)F)n(C)c2=O)c(F)cc1Cl", "group": "Criterion met"}
{"molecule": "Cn1c(C(F)(F)F)cc(=O)n(-c2cc(N=C3SCC(=O)N3CCC(=O)O)c(Cl)cc2F)c1=O", "group": "Criterion met"}
{"molecule": "Cn1c(C(F)(F)F)cc(=O)n(-c2cc(N=C3SCC(=O)N3CC(=O)OCC3CC3)c(Cl)cc2F)c1=O", "group": "Criterion not met"}

Incoming: Please check the record CCOC(=O)CN1C(=O)C(SC)SC1=Nc1cc(-n2c(=O)cc(C(F)(F)F)n(C)c2=O)c(F)cc1Cl (stereo not drawn) and state if its Preemergence herbicidal rating ZEAMX is at or above 4.
Outgoing: Criterion met

Incoming: Please check the record O=C(O)CC1SC(=Nc2cc(N3C(=O)C4=C(CCCC4)C3=O)c(F)cc2Cl)N(CC(=O)O)C1=O (stereo not drawn) and state if its Preemergence herbicidal rating ZEAMX is at or above 4.
Outgoing: Criterion not met

Incoming: Please check the record COC(=O)[C@H](Cc1ccccc1)N1C(=O)CS/C1=N/c1cc(-n2c(=O)cc(C(F)(F)F)n(C)c2=O)c(F)cc1Cl and state if its Preemergence herbicidal rating ZEAMX is at or above 4.
Outgoing: Criterion not met

Incoming: Please check the record Cn1c(C(F)(F)F)cc(=O)n(-c2cc(N=C3SCC(=O)N3C3CCOC3=O)c(Cl)cc2F)c1=O (stereo not drawn) and state if its Preemergence herbicidal rating ZEAMX is at or above 4.
Outgoing: Criterion met

* * *

Below is a list of entries, each paired with its recorded AMBEL rating value.
Test system: AMBEL (Ragweed, Common)
Test: Preemergence herbicidal evaluation
Type: in vivo, Ambrosia artemisifolia
Conditions: preemergence, 0.1250 kg/ha, rated 4-5 weeks after treatment, 0-9 scale
Excerpt: Results of herbicide evaluation are expressed on a rating scale (0-9). The scale is based upon a visual observation of plant stand, vigor, malformation, size, chlorosis and overall plant appearance as compared with a control. […] The compounds evaluated are reported by compound number given in Example 37.
Reply with just the number.

Incoming: Given C=CCOC(=O)CN1C(=O)CSC1=Nc1cc(-n2c(=O)cc(C(F)(F)F)n(C)c2=O)c(F)cc1Cl [Compound 106] , respond with its AMBEL rating.
Outgoing: 7.0

* * *

Below is a list of entries, each paired with its recorded ECHORC herbicidal effect rating value.
tested on: ECHORC (Watergrass (Calif.)); assay: Preemergence weed control under flooded paddy conditions; type: in vivo, Echinochloa oryzoides; conditions: 0.0625 kg/ha, rated 3-4 weeks after treatment
Reply with just the number.

{"compound": "CCOC(=O)CN1C(=O)C(CC(=O)OCCF)SC1=Nc1cc(-n2c(=O)cc(C(F)(F)F)n(C)c2=O)c(F)cc1Cl (centres unmarked)", "ECHORC herbicidal effect rating": 4.0}
{"compound": "CCS(=O)(=O)NC(=O)CC1SC(=Nc2cc(-n3c(=O)cc(C(F)(F)F)n(C)c3=O)c(F)cc2Cl)N(C)C1=O (centres unmarked)", "ECHORC herbicidal effect rating": 3.0}

Incoming: Answer briefly: ECHORC herbicidal effect rating recorded on ECHORC (Watergrass (Calif.)) for COC(=O)C1(N2C(=O)CSC2=Nc2cc(-n3c(=O)cc(C(F)(F)F)n(C)c3=O)c(F)cc2Cl)CCCCC1
Outgoing: 0.0

Incoming: Answer briefly: ECHORC herbicidal effect rating recorded on ECHORC (Watergrass (Calif.)) for CCOC(=O)CN1C(=O)C(CC(=O)OC(C)C(=O)OCC)S/C1=N/c1cc(-n2c(=O)cc(C(F)(F)F)n(C)c2=O)c(F)cc1Cl (centres unmarked)
Outgoing: 0.0

Incoming: Answer briefly: ECHORC herbicidal effect rating recorded on ECHORC (Watergrass (Calif.)) for C=CCN1C(=O)C(CC(=O)NOC)SC1=Nc1cc(-n2c(=O)cc(C(F)(F)F)n(C)c2=O)c(F)cc1Cl (centres unmarked)
Outgoing: 5.0

* * *

system: ZEAMX (Corn, Field); experiment: Postemergence herbicidal evaluation; assay type: in vivo, Zea mays; conditions: postemergence, rate 0.0630 kg/ha
measured endpoint: herbicidal rating ZEAMX
Reply with just the number.

{"compound": "CCOC(=O)CN1C(=O)C(CC(=O)O)SC1=Nc1cc(-n2nc(C)n(C(F)F)c2=O)c(F)cc1Cl (centres unmarked) [Compound 112]", "measured endpoint": "herbicidal rating ZEAMX", "observed": 5.0}
{"compound": "COCCOC(=O)CN1C(=O)CSC1=Nc1cc(-n2c(=O)cc(C(F)(F)F)n(C)c2=O)c(F)cc1Cl [Compound 107]", "measured endpoint": "herbicidal rating ZEAMX", "observed": 7.0}
{"compound": "Cn1c(C(F)(F)F)cc(=O)n(-c2cc(N=C3SCC(=O)N3CC(=O)OCC#N)c(Cl)cc2F)c1=O [Compound 109]", "measured endpoint": "herbicidal rating ZEAMX", "observed": 7.0}

Incoming: Answer briefly: herbicidal rating ZEAMX recorded on ZEAMX (Corn, Field) for CCOC(=O)CN1C(=O)C(CC(=O)NS(=O)(=O)C(C)C)SC1=Nc1cc(-n2c(=O)cc(C(F)(F)F)n(C)c2=O)c(F)cc1Cl (centres unmarked) [Compound 117]
Outgoing: 5.0

Incoming: Answer briefly: herbicidal rating ZEAMX recorded on ZEAMX (Corn, Field) for CCCCOC(=O)CN1C(=O)CSC1=Nc1cc(-n2c(=O)cc(C(F)(F)F)n(C)c2=O)c(F)cc1Cl [Compound 111]
Outgoing: 7.0
